# TARGET: Receptor tyrosine-protein kinase erbB-4 (Homo sapiens);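 note: values are averaged percent inhibition of ERBB4 kinase activity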
# MEASUREMENT_CONTEXT: at 0.1 µM
OUTCOME_MEASURE: inhibition (%)
Provide only the numeric value, understood in %.

# annotated cases, reported inhibition shown
CHEMICAL_STRUCTURE: CCc1ccc(Oc2nccc(-c3c(-c4ccc(F)cc4)ncn3C3CCNCC3)n2)cc1
OUTCOME_MEASURE: inhibition
OBS_VALUE: 7.62

CHEMICAL_STRUCTURE: CCN(CC)Cc1ccc(Nc2nccc(-c3cnn4ncccc34)n2)cc1
OUTCOME_MEASURE: inhibition
OBS_VALUE: 1.52

CHEMICAL_STRUCTURE: CCc1cccc(CC)c1/C=C/c1cncc(C(=O)NC)c1
OUTCOME_MEASURE: inhibition
OBS_VALUE: 12.1

CHEMICAL_STRUCTURE: C[C@@H](Oc1cc(-n2cnc3ccc(OC4CCN(C)CC4)cc32)sc1C(N)=O)c1ccccc1Cl
OUTCOME_MEASURE: inhibition
OBS_VALUE: 1.1

CHEMICAL_STRUCTURE: NCc1ccc(-n2c(-c3nonc3N)nc3cnccc32)cc1
OUTCOME_MEASURE: inhibition
OBS_VALUE: 16.3

CHEMICAL_STRUCTURE: CCC(=O)Nc1ccc(C)c(-c2ccc(C(=O)NCC3CC3)cc2)c1
OUTCOME_MEASURE: inhibition
OBS_VALUE: 9.79

CHEMICAL_STRUCTURE: Fc1ccc(-c2ncn(C3CCNCC3)c2-c2ccnc(Oc3ccc(Oc4ccccc4)cc3)n2)cc1
OUTCOME_MEASURE: inhibition
OBS_VALUE: 6.47

CHEMICAL_STRUCTURE: CN(c1ccc(NC(=O)Nc2c(Cl)cccc2Cl)cc1)c1ccnc(Nc2cccc(CS(C)(=O)=O)c2)n1
OUTCOME_MEASURE: inhibition
OBS_VALUE: 11.2

CHEMICAL_STRUCTURE: NC(=O)Cc1ccccc1Oc1nccc(-c2c(-c3ccc(F)cc3)ncn2C2CCNCC2)n1
OUTCOME_MEASURE: inhibition
OBS_VALUE: 12.1

*Q* Fill blank: measured inhibition of the compound COc1cccc(-n2cnc3c(N/N=C/c4ccncc4)ncnc32)c1 is ____.
*A* -3.73

----------
# TARGET: Protein kinase C eta type (Homo sapiens);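 note: value is the mean inhibition, from GSK PKIS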
# MEASUREMENT_CONTEXT: at 1 µM
Reported values of inhibition for individual entries
Provide only the numeric value, understood in %.

# annotated cases, reported inhibition shown
MOLECULE: C/C(Nc1ccc(S(N)(=O)=O)cc1)=C1/C(=O)Nc2ccccc21
OUTCOME_MEASURE: inhibition
U: %
OBS_VALUE: -1.17
//
MOLECULE: FC(F)(F)c1cccc(Nc2nccc(-c3cnn4nc(-c5ccccc5)ccc34)n2)c1
OUTCOME_MEASURE: inhibition
U: %
OBS_VALUE: 3.01
//
MOLECULE: COc1cc2ncn(-c3cc(OCc4ccccc4C(F)(F)F)c(C(C)=O)s3)c2cc1OC
OUTCOME_MEASURE: inhibition
U: %
OBS_VALUE: 3.47

Now consider a different molecule.
*Q* Fill blank: measured inhibition of the molecule COc1ccc2cc(-c3c(-c4ccncc4)nc(-c4ccc([S+](C)[O-])cc4C)n3C)ccc2c1 (stereo not given) is ____.
*A* 0.69

----------
# TARGET: Calcium/calmodulin-dependent protein kinase type 1D (Homo sapiens)
# MEASUREMENT_CONTEXT: at 1 µM
OUTCOME_MEASURE: inhibition

# annotated cases, reported inhibition shown
CHEMICAL_STRUCTURE: NC(=O)Cc1ccccc1Oc1nccc(-c2c(-c3ccc(F)cc3)ncn2C2CCNCC2)n1
TARGET: Calcium/calmodulin-dependent protein kinase type 1D (Homo sapiens)
OBS_VALUE: 1.65%

CHEMICAL_STRUCTURE: Fc1ccc(-c2nc3n(c2-c2ccncc2)CCS3)cc1
TARGET: Calcium/calmodulin-dependent protein kinase type 1D (Homo sapiens)
OBS_VALUE: -0.26%

CHEMICAL_STRUCTURE: O=C(NCC1CC1)c1ccc(-c2cccc(C(=O)NC3CC3)c2)cc1
TARGET: Calcium/calmodulin-dependent protein kinase type 1D (Homo sapiens);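 note: reported figure is the mean percent inhibition of CAMK1D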
OBS_VALUE: 2.29%

*Q* Fill blank: measured inhibition of the molecule N#Cc1ccc(Oc2nccc(-c3c(-c4ccc(F)cc4)ncn3C3CCNCC3)n2)cc1 is ____.
*A* 0.96%

*Q* Fill blank: measured inhibition of the molecule COc1cc2ncn(-c3cc(OCCc4ccccc4)c(C(N)=O)s3)c2cc1OC is ____.
*A* 1.85%

*Q* Fill blank: measured inhibition of the molecule Cc1ccc(C(=O)NC(C)C)cc1-c1ccc(C(=O)NCC2CC2)cc1 is ____.
*A* 0.57%

*Q* Fill blank: measured inhibition of the molecule Fc1ccc(-c2c(-c3ccncc3)nc3n2CCS3)cc1 is ____.
*A* -0.09%

*Q* Fill blank: measured inhibition of the molecule COc1ccc(-c2ccc3c(NC(=O)C4CC4)n[nH]c3n2)cc1 is ____.
*A* -0.83%

----------
Reported values of inhibition for individual entries
# TARGET: Mitogen-activated protein kinase 13 (Homo sapiens) (UniProt O15264)
# Sequence (whole entry): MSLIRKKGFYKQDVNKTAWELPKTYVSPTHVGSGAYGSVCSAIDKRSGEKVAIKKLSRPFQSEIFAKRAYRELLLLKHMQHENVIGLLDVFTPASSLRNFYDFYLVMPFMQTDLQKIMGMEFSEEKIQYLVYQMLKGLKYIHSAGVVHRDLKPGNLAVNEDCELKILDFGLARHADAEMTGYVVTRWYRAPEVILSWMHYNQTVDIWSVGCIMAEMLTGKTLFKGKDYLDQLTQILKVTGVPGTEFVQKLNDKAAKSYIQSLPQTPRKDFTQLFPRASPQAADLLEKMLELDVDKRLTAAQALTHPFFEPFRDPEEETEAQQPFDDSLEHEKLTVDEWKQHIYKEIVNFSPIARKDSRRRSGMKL
# MEASUREMENT_CONTEXT: at 0.1 µM
Provide only the numeric value, understood in %.

# annotated cases, reported inhibition shown
CHEMICAL_STRUCTURE: COc1cc(Nc2ncc(-c3ccccc3)o2)cc(OC)c1OC
TARGET: Mitogen-activated protein kinase 13 (Homo sapiens) (UniProt O15264)
inhibition (%): -0.94
//
CHEMICAL_STRUCTURE: CCS(=O)(=O)c1ccc(OC)c(Nc2ncc(-c3cccc(-c4ccccc4F)c3)o2)c1
TARGET: Mitogen-activated protein kinase 13 (Homo sapiens) (UniProt O15264)
inhibition (%): 3.85
//
CHEMICAL_STRUCTURE: Fc1ccc(-c2nc3n(c2-c2ccncc2)CCS3)cc1
TARGET: Mitogen-activated protein kinase 13 (Homo sapiens) (UniProt O15264);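 note: reported value is the mean percent inhibition of p38delta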
inhibition (%): 1.46

*Q* Fill blank: measured inhibition of the compound CN(C)CCOc1ccc(-c2cc(-c3ccc4c(c3)CCC4=NO)c(-c3ccncc3)o2)cc1 is ____.
*A* -1.01

*Q* Fill blank: measured inhibition of the compound CCc1nccc2c1nc(-c1nonc1N)n2CC is ____.
*A* -1.2

----------
# TARGET: Tyrosine-protein kinase JAK3 (Homo sapiens) (UniProt P52333)
# Sequence (P52333 whole entry): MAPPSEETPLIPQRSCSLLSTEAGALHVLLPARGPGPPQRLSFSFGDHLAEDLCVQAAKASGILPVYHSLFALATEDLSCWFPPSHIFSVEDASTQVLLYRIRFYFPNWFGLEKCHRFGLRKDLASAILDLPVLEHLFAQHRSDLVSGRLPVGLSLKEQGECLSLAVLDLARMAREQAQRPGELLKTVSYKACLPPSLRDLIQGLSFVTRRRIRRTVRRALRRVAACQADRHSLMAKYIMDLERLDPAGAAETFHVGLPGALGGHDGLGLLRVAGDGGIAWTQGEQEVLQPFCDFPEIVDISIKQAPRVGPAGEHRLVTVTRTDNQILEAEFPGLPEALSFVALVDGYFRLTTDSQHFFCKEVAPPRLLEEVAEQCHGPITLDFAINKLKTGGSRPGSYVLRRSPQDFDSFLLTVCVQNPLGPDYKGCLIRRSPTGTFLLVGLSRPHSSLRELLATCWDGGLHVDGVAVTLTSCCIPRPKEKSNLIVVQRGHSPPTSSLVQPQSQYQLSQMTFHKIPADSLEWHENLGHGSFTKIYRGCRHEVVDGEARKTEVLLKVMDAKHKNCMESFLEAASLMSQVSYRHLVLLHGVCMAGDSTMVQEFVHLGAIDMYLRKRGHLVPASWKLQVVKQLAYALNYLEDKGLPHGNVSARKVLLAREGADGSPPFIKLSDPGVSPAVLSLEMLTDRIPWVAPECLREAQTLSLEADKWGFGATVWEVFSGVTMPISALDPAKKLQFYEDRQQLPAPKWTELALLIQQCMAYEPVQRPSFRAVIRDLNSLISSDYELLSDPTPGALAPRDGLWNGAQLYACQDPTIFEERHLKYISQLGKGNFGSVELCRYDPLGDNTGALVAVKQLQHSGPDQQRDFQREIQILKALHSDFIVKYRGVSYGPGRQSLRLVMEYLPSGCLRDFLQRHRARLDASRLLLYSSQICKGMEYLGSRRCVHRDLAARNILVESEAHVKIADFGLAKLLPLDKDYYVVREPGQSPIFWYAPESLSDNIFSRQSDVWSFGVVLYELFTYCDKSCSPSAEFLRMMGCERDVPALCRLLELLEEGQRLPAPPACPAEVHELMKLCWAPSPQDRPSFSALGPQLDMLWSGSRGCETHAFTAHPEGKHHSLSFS
# MEASUREMENT_CONTEXT: at 1 µM
# Description: GSK_PKIS: JAK3 mean inhibition at 1 uM [Nanosyn]
OUTCOME_MEASURE: inhibition (%)
Provide only the numeric value, understood in %.

*Q* Fill in the recorded inhibition for this compound, with Tyrosine-protein kinase JAK3 (Homo sapiens) (UniProt P52333) as test system: COc1cccc(-n2cnc3c(N/N=C/c4ccncc4)ncnc32)c1
*A* -2.19

*Q* Fill in the recorded inhibition for this compound, with Tyrosine-protein kinase JAK3 (Homo sapiens) (UniProt P52333) as test system: FC(F)(F)c1cccc(Nc2nccc(-c3cnn4nc(-c5ccccc5)ccc34)n2)c1
*A* -0.12

*Q* Fill in the recorded inhibition for this compound, with Tyrosine-protein kinase JAK3 (Homo sapiens) (UniProt P52333) as test system: C[C@@H](Oc1cc(-n2cnc3ccc(OCC4CCN(C)CC4)cc32)sc1C(N)=O)c1ccccc1Cl
*A* 29.3

----------
Reported values of inhibition for individual entries
# TARGET: Serine/threonine-protein kinase Nek2 (Homo sapiens);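 note: mean inhibition value from the GSK PKIS kinase screening panel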
# MEASUREMENT_CONTEXT: at 0.1 µM
Provide only the numeric value, understood in %.

CHEMICAL_STRUCTURE: Fc1ccc(-c2ncn(CCCN3CCOCC3)c2-c2ccncc2)cc1
inhibition [%]: -0.45

*Q* Fill in the recorded inhibition for this molecule, with Serine/threonine-protein kinase Nek2 (Homo sapiens) as test system: NC(=O)c1cc(-c2ccncc2)cc(-c2ccccc2)c1N
*A* 6.42

*Q* Fill in the recorded inhibition for this molecule, with Serine/threonine-protein kinase Nek2 (Homo sapiens) as test system: O=C(Nc1n[nH]c2nc(-c3ccco3)ccc12)C1CC1
*A* -0.12

*Q* Fill in the recorded inhibition for this molecule, with Serine/threonine-protein kinase Nek2 (Homo sapiens) as test system: COc1cc(Nc2ncc3c(C)nc(-c4cccc(Oc5ccccc5)c4)n3n2)cc(OC)c1OC
*A* 7.11

*Q* Fill in the recorded inhibition for this molecule, with Serine/threonine-protein kinase Nek2 (Homo sapiens) as test system: Cc1ccc(C(=O)NC(C)C)cc1-c1ccc(C(=O)NCC2CC2)cc1
*A* -3.14

*Q* Fill in the recorded inhibition for this molecule, with Serine/threonine-protein kinase Nek2 (Homo sapiens) as test system: COc1ccc(C2=C(N3CCc4ccccc43)C(=O)NC2=O)cc1
*A* 5.3

*Q* Fill in the recorded inhibition for this molecule, with Serine/threonine-protein kinase Nek2 (Homo sapiens) as test system: COc1cccc(-n2cnc3c(N/N=C/c4ccncc4)ncnc32)c1
*A* -1.74
